# IC50 against Estrogen receptor (Homo sapiens, UniProt P03372), merged from multiple literature sources
# Sequence (P03372 whole entry): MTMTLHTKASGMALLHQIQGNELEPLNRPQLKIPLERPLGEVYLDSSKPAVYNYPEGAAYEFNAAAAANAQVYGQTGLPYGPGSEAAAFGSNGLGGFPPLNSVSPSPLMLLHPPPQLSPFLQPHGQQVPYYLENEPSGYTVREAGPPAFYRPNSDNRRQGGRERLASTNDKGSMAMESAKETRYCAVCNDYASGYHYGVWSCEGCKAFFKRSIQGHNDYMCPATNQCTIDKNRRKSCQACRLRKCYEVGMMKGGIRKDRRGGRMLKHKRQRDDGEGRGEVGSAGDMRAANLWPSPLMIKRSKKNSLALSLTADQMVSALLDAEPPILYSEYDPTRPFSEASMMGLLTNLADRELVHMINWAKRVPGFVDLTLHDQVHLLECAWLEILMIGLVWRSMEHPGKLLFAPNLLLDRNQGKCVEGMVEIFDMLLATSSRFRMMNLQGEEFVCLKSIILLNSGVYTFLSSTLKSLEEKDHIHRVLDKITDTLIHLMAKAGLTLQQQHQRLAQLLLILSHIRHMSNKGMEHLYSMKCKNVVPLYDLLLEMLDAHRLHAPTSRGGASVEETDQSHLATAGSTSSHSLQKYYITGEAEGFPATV
Quick rule for you: IC50 under 3000 nM gets MET, anything else gets NOT MET.

[[record]]
compound = "Cc1cc2c(=O)oc3c(C)c(O)ccc3c2c(C)c1Br"
target_under_test = "Estrogen receptor (Homo sapiens, UniProt P03372)"
group = "NOT MET"

[[record]]
compound = "CCCCCCCCCCCCCCNCCOc1ccc(/C(=C(/CC)c2ccccc2)c2ccc(O)cc2)cc1"
target_under_test = "Estrogen receptor (Homo sapiens, UniProt P03372)"
group = "MET"

[[record]]
compound = "Oc1ccc(-c2cc(Cl)c3cc(O)ccc3c2)cc1"
target_under_test = "Estrogen receptor (Homo sapiens, UniProt P03372)"
group = "MET"

[[record]]
compound = "CC[C@@]12C[C@H](O)[C@](O)(c3ccccc3)C[C@H]1CCc1cc(O)ccc12"
target_under_test = "Estrogen receptor (Homo sapiens, UniProt P03372)"
group = "NOT MET"

[[record]]
compound = "O=c1c2c(O)cc(O)cc2ncn1-c1ccc(O)nc1"
target_under_test = "Estrogen receptor (Homo sapiens, UniProt P03372)"
group = "NOT MET"

[[record]]
compound = "O=C1C(c2ccc(O)cc2)=C(Br)c2cc(O)ccc21"
target_under_test = "Estrogen receptor (Homo sapiens, UniProt P03372)"
group = "MET"

[[record]]
compound = "CCCC12CCC(=O)C(C)=C1c1ccc3nn[nH]c3c1C2 (stereo unspecified)"
target_under_test = "Estrogen receptor (Homo sapiens, UniProt P03372)"
group = "NOT MET"

[[record]]
compound = "CS(=O)(=O)Nc1ccc2c(c1)C(c1ccccc1)Oc1cccc(OC(F)F)c1-2 (stereo unspecified)"
target_under_test = "Estrogen receptor (Homo sapiens, UniProt P03372)"
group = "NOT MET"

[[record]]
compound = "Oc1ccc([C@H]2Sc3cc(O)ccc3S[C@H]2c2ccc(OCCN3CCCCC3)cc2)cc1"
target_under_test = "Estrogen receptor (Homo sapiens, UniProt P03372)"
group = "MET"

